Data credit: PubChem BioAssay AID449762

- Measurement Description: M. tuberculosis growth inhibition, HTS (AID 449762);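 also: bacterial growth assessed after seven days of incubation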
- Condition Parameters: M. tuberculosis H37Rv growth inhibition, 7H9 media; at 25 µM; stronger effect = higher value
In all, about 330,000 compounds went through this assay and about 1,900 (0.58%) were called active. Roughly 4% stayed inconclusive and do not appear here. A selection follows. Measured potencies and affinities stand elsewhere.
Measured Endpoint: inhibition (%)

| Molecule | Measured Endpoint | Units Text | Experimental Result |
| --- | --- | --- | --- |
| CC1CN(c2ccc([N+](=O)[O-])c(NCCOc3ccccc3)c2)CC(C)N1 (stereo not given) | inhibition | % | 18.3 |
| CS(=O)c1nc(-c2ccc(Br)cc2)cc(-c2ccccc2)c1C#N (stereo not given) | inhibition | % | 65 |
| O=C(NC1CC1)c1cc(=O)c2ccccc2o1 | inhibition | % | -13.4 |
| O=C(/C=C\c1cccs1)c1c(O)ccc2ccc(=O)oc12 | inhibition | % | 69.8 |
| N#Cc1nc(-c2ccc(OCc3ccc(Cl)cc3)cc2)oc1NCCCn1ccnc1 | inhibition | % | 0.8 |
| CN1/C(=C\C(=O)COC(=O)c2ccc(O)c(O)c2)C(C)(C)c2ccccc21 | inhibition | % | 25 |
| Cn1cnnc1SCc1ccccc1Br | inhibition | % | -3.04 |
| NC(=O)CN1CCCC1c1ccc2c(c1)OCCO2 (stereo not given) | inhibition | % | -1.31 |
| CCCOc1ccc(CC2CCC(=O)NC2=O)cc1 (stereo not given) | inhibition | % | 5.69 |
| Cc1nc(-c2ccccc2)sc1C1(C)CC(c2ccc(C#N)cc2)=NO1 (stereo not given) | inhibition | % | -2.7 |
| COC(=O)c1sccc1NC(=O)CSc1cccc(Cl)c1Cl | inhibition | % | 11 |
| CNC(=O)Cc1nc2ccccc2n1CC(=O)Nc1cc(C)cc(C)c1 | inhibition | % | -9.59 |
| CCCN1CCN(CC(O)COC(c2ccc(OC)cc2)c2ccc(OC)cc2)CC1 (stereo not given) | inhibition | % | 6.36 |
| CC(=O)c1ccc(NC(=O)CNCc2cccs2)cc1 | inhibition | % | -3.9 |
| O=C(CN(c1ccc(F)cc1)S(=O)(=O)c1ccc2c(c1)OCCO2)N1CCOCC1 | inhibition | % | 1.58 |
| COc1ccc(-c2cc(-c3ccccc3)c(C#N)c(S(C)(=O)=O)n2)cc1 | inhibition | % | 8.53 |
| S=C(N/N=C/c1ccc(Cl)cc1)N1CCOCC1 | inhibition | % | 10.7 |
| CC1CN(c2ccc([N+](=O)[O-])c(NCCOc3ccccc3)c2)CCN1 (stereo not given) | inhibition | % | 22.7 |
| Cc1ccc(NC2=C/C(=N/S(=O)(=O)c3cccs3)c3ccccc3C2=O)cc1C | inhibition | % | 5.44 |
| COc1cc(N/C=C(\C(C)=O)c2ccccc2)cc(OC)c1 | inhibition | % | 4.79 |
| Cc1ccc(NC2=C/C(=N/S(=O)(=O)c3cccs3)c3ccccc3C2=O)cc1 | inhibition | % | 62.9 |
| COc1cc2c(C(=O)N3CCN(c4cccc(Cl)c4)CC3)cn(C)c(=O)c2cc1OC | inhibition | % | -1.4 |
| Cc1ccc(/C=N/NC(=S)N2CCOCC2)cc1 | inhibition | % | -4.55 |
| COc1ccc(CCN(C)CC(O)COC(c2ccc(F)cc2)c2ccc(F)cc2)cc1OC (stereo not given) | inhibition | % | 6.55 |
| COc1cccc(C(=O)c2c[nH]c(C(=O)NCCCN(C)C)c2)c1 | inhibition | % | -4.05 |
| COc1ccc(NC(=O)C(CC(=O)O)Cc2ccccc2)cc1 (stereo not given) | inhibition | % | -9.83 |
| N#Cc1nc(-c2ccc(OCc3ccccc3Cl)cc2)oc1NCCCn1ccnc1 | inhibition | % | 0.78 |
| CCOC(=O)c1c(NC(=O)COC(=O)Cc2n[nH]c(=O)c3ccccc23)sc(C(=O)NC)c1C | inhibition | % | -12.1 |
| O=C1c2ccccc2C(=O)N1CCc1csc(-c2cccc(F)c2)n1 | inhibition | % | 3.85 |
| CCn1cc(C(=O)N2CCN(c3cccc(Cl)c3)CC2)c2cc(OC)c(OC)cc2c1=O | inhibition | % | -2.64 |
| COc1ccc(-c2ccc(N(C)C)cc2)cc1[C@H]1[C@@H]2C=CCC[C@@]2(C)C(=O)N1Cc1ccccc1 | inhibition | % | -2.81 |
| Cc1nc2sccn2c(=O)c1S(=O)(=O)N1CCN(c2ccc(F)cc2)CC1 | inhibition | % | 8.78 |
| COc1cccc(CN(C)C(=O)/C=C/c2ccc(S(=O)(=O)N3CCCCCC3)cc2)c1 | inhibition | % | 4.38 |
| COc1ccc(CS(=O)(=O)CC(C)(O)c2ccc(Cl)cc2)cc1 (stereo not given) | inhibition | % | 8.74 |
| C/C(=N\Nc1cccc(Cl)c1)c1ccc(-n2ccnc2)cc1 | inhibition | % | 0.99 |
| c1ccc(-n2ccnc2)cc1 | inhibition | % | 62.1 |
| Cc1onc(C(=O)N2CCN(Cc3ccccc3)CC2)c1[N+](=O)[O-] | inhibition | % | 3.07 |
| Cc1ccc(NC(=O)CNCc2cccs2)c(Br)c1 | inhibition | % | 1 |
| c1ccc(-c2nc(-n3ccnc3)nc(-n3ccnc3)n2)cc1 | inhibition | % | 22.2 |
| O=C(CSC(=S)N1CCCCC1)c1ccccc1 | inhibition | % | 69.2 |
| Cn1cnnc1SCc1cccc(Br)c1 | inhibition | % | 1.07 |
| CCOC(=O)c1c(-c2ccccc2)c2cc(OC)ccc2n1CCCN(C)C | inhibition | % | 47.1 |
| COC(=O)c1ncccc1SC | inhibition | % | -6.32 |
| Cc1nc2ccccn2c(=O)c1CCN1CCC(C(=O)c2ccc(F)cc2)CC1 | inhibition | % | -4.74 |
| CC(=O)c1ccc(OCC(=O)N2CCCC2c2ccc3c(c2)OCCCO3)cc1 (stereo not given) | inhibition | % | -12.4 |
